// reported human B cell proliferation, with protein G crosslinking, Max Fold Change for each item listed
Target Entity: human CD40 on cells (human, UniProt P25942 21-277)
Sequence (P25942 21-277 limits assumed): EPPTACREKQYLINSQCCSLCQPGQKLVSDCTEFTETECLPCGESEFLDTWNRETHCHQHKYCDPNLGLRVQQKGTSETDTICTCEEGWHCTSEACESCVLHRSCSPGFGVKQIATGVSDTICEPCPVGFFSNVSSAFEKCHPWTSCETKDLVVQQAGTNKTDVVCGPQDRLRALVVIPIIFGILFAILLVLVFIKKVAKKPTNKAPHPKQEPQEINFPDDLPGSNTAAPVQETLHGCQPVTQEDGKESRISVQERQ
Run Description: cell-based or functional assay
Metric Name: human B cell proliferation, with protein G crosslinking, Max Fold Change

# Binder, Result
rows = [
    ("36F3 (antibody, IgG4, V domains shown, also called 4891-1) VH: QVQLQQSGPGLVKPSQTLSLTCAISGDSVSSSRTAWNWIRQSPSRGLEWLGRTYYRSKWYHDYSVSVKSRITIDPDTSKNQFSLQLNSVTPEDTAVYYCARGAAPFDYWGQGTLVTVSS VL: EIVLTQSPGTLSLSPGERATLSCRASQSVSSNYLAWYQQKPGQAPRALIYAASNRAAGISDRFSGSGSGTDFTLTISRLEPEDFAVYFCQQYGSSPLTFGGGTKVEIKR", "16.9 fold"),
    ("30A12 (antibody, IgG4, V domains shown, also called 4878-1) VH: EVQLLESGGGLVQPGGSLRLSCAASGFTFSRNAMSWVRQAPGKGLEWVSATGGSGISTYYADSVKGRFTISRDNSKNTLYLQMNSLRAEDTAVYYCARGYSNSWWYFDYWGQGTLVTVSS VL: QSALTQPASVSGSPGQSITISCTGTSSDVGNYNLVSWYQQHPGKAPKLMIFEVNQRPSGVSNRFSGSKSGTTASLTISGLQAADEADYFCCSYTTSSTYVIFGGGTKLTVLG", "23.8 fold"),
    ("37A6 (antibody, IgG4, V domains shown, also called 4865-1) VH: QVQLVESGGGLVKPGGSLRLSCAASEFTFSDYYMSWIRQAPGKGLEWVSYISRSGDTIYYADSVKGRFTISRDNAKNSLYLQMNGLRAEDTAVYYCARDLAAGATGGLDCWGQGTLVTVSS VL: SYELTQPPSVSVSPGQTASITCSGERLGNKYICWYQQKPGQSPVLVIYQDFKRPSGIPERFSGSNSGITATLTISGTQAMDEADYYCQAWDSRTVVFGGGTKLTVLG", "27.1 fold"),
]
